Hey, just so you know, these numbers are from patent US10501479B2.

- protocol: Animal PK study in mouse via i.v., p.o. and s.c. administration
- Format: in vivo
- measurement conditions: i.v.
Some compounds, each annotated with its measured PK CLiv.
measure name: PK CLiv (mL/min/kg)

compound	unit name	recorded measurement
CC(NC(=O)Nc1ccc(S(=O)(=O)Cc2ccc3c(c2)CNC3)cc1)c1cccc2ccccc12.Cl (stereo not drawn)	mL/min/kg	16.3
C[C@H](NC(=O)Nc1ccc(S(=O)(=O)Cc2ccc(CC(C)(C)N)cc2)cc1)c1cccc(Cl)c1Cl	mL/min/kg	7.67
COc1ccc([C@H](C)NC(=O)Nc2ccc(S(=O)(=O)Cc3ccc4c(c3)CCN(C(C)=O)C4)cc2)c(Cl)c1Cl	mL/min/kg	30.7

---

- experimental system: recombinant human ghrelin receptor (HEK293/GRLN) (Homo sapiens, UniProt Q92847)
- Construct: expressed in transfected cells
- Sequence (Q92847 whole entry): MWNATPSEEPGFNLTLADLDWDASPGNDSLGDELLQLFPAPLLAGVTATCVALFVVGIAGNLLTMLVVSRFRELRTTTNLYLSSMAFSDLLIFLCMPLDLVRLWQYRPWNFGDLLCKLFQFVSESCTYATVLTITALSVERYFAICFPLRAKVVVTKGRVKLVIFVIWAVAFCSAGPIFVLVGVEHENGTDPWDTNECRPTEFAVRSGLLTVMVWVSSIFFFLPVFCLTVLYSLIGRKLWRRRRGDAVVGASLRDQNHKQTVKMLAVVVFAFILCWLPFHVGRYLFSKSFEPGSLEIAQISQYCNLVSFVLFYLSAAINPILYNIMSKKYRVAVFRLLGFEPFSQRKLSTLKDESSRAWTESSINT
- protocol: Ghrelin inverse agonist potency (EC50) with IP-1 (IP-One HTRF) assay
- Format: cell-based
- measurement conditions: inverse agonist potency, IP-1 assay; read-out: EC50 (Activity)
Some molecules, each annotated with its measured EC50.
measure name: EC50 (µM)

molecule	unit name	recorded measurement
Cc1oc(=O)oc1CN1CCc2cc(NS(=O)(=O)c3ccc(NC(=O)N[C@@H](C)c4cccc(Cl)c4Cl)cc3)ccc2C1 [H1068]	µM	0.0084
C[C@H](NC(=O)Nc1ccc(S(=O)(=O)Cc2ccc3c(c2)CCN3)cc1)c1cccc(Cl)c1Cl [H1047]	µM	1.16
C[C@H](NC(=O)Nc1ccc(S(=O)(=O)Nc2ccc(CC(C)(C)N)cc2)cc1)c1ccc(C#CC2CC2)c(Cl)c1Cl [H0907]	µM	1.61
CN1Cc2ccc(CS(=O)(=O)c3ccc(NC(=O)NCc4ccccc4)cc3)cc2C1 [H1193]	µM	0.064
CC(C)(N)Cc1ccc(NS(=O)(=O)c2ccc(NC(=O)NCc3ccccc3)cc2)cc1.Cl [H0993]	µM	0.021
C[C@H](NC(=O)Nc1ccc(S(=O)(=O)Nc2ccc(CC(C)(C)O)cc2)cc1)c1cccc(Cl)c1Cl [H1076]	µM	0.0577
CC(NC(=O)Nc1ccc(S(=O)(=O)Cc2ccc(CO)cc2)cc1)c1cccc2ccccc12 (stereo not shown) [H1132]	µM	0.219

---

- experimental system: recombinant human ghrelin receptor (HEK293/GRLN) (Homo sapiens, UniProt Q92847)
- Construct: expressed in transfected cells
- protocol: Ghrelin inverse agonist potency (EC50) with IP-1 (IP-One HTRF) assay
- Format: cell-based
- measurement conditions: IP-1 assay, HEK293/GRLN; read-out: Activity EC50 (ghrelin inverse agonist potency)
So basically: is EC50 under 4 nM? Then y. Not under? Then n.

molecule	experimental system	class label
COc1cc(S(=O)(=O)Cc2ccc(CO)cc2)ccc1NC(=O)NC(C)c1ccc(OC)c(Cl)c1Cl (centres unmarked)	recombinant human ghrelin receptor (HEK293/GRLN) (Homo sapiens, UniProt Q92847)	n
C[C@@H](NC(=O)Nc1ccc(S(=O)(=O)Cc2ccc3c(c2F)CN(C)C3)cc1)c1ccccc1	recombinant human ghrelin receptor (HEK293/GRLN) (Homo sapiens, UniProt Q92847)	y
CC1Cc2cc(CS(=O)(=O)c3ccc(NC(=O)NC(C)c4ccccc4)cc3)ccc2CN1 (centres unmarked)	recombinant human ghrelin receptor (HEK293/GRLN) (Homo sapiens, UniProt Q92847)	n
CC1c2ccccc2CCN1C(=O)Nc1ccc(S(=O)(=O)Cc2ccc3c(c2)CNC3)cc1 (centres unmarked)	recombinant human ghrelin receptor (HEK293/GRLN) (Homo sapiens, UniProt Q92847)	n
CN1Cc2ccc(CS(=O)(=O)c3ccc(NC(=O)NC4CNc5ccccc54)cc3)cc2C1 (centres unmarked)	recombinant human ghrelin receptor (HEK293/GRLN) (Homo sapiens, UniProt Q92847)	n
CC(NC(=O)Nc1ccc(S(=O)(=O)Cc2ccc3c(c2)CN(C2CCOC2)C3)cc1)c1ccccc1.O=C(O)C(F)(F)F (centres unmarked)	recombinant human ghrelin receptor (HEK293/GRLN) (Homo sapiens, UniProt Q92847)	y
CC(NC(=O)Nc1ccc(S(=O)(=O)Cc2ccc3c(c2)CN(C)C3)cc1)c1ccccc1Cl (centres unmarked)	recombinant human ghrelin receptor (HEK293/GRLN) (Homo sapiens, UniProt Q92847)	n
COc1cc(S(=O)(=O)Cc2cc(F)c3c(c2)CCNC3)ccc1NC(=O)NC(C)c1cccc(Cl)c1Cl (centres unmarked)	recombinant human ghrelin receptor (HEK293/GRLN) (Homo sapiens, UniProt Q92847)	n
COc1cc(S(=O)(=O)Cc2ccc3c(c2)CN(C)C3)ccc1NC(=O)NC(C)c1ccccc1OC (centres unmarked)	recombinant human ghrelin receptor (HEK293/GRLN) (Homo sapiens, UniProt Q92847)	y
C[C@H](NC(=O)Nc1ccc(S(=O)(=O)Cc2ccc3c(c2)CN(C)CC3)cc1)c1ccccc1	recombinant human ghrelin receptor (HEK293/GRLN) (Homo sapiens, UniProt Q92847)	n
COc1cc(S(=O)(=O)Cc2ccc3c(c2)CCNC3)ccc1NC(=O)NC(C)c1ccccc1 (centres unmarked)	recombinant human ghrelin receptor (HEK293/GRLN) (Homo sapiens, UniProt Q92847)	n
COc1ccc([C@@H](C)NC(=O)Nc2ccc(S(=O)(=O)Cc3ccc4c(c3)CCN(C)C4)cc2F)c(Cl)c1Cl	recombinant human ghrelin receptor (HEK293/GRLN) (Homo sapiens, UniProt Q92847)	y
C[C@H](NC(=O)Nc1ccc(S(=O)(=O)CC2CCNCC2)cc1)c1ccccc1	recombinant human ghrelin receptor (HEK293/GRLN) (Homo sapiens, UniProt Q92847)	n
CC(NC(=O)Nc1ccc(S(=O)(=O)Cc2ccc(CN3CCCC3)cc2)cc1)c1ccccc1 (centres unmarked)	recombinant human ghrelin receptor (HEK293/GRLN) (Homo sapiens, UniProt Q92847)	n
